Target: CypE (Homo sapiens, UniProt Q9UNP9)
Construct: PPIE (UniProtKB Entry Q9UNP9: res 131-301); host or cells: E. coli BL21(DE3)
Sequence (Q9UNP9 131-301): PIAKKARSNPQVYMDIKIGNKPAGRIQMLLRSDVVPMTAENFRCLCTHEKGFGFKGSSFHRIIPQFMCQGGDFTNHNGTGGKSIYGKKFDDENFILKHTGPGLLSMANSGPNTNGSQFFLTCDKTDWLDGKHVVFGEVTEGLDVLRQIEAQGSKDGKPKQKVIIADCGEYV
Assay: Chymotrypsin coupled prolyl-isomerase assay
Format: biochemical
Conditions: wild-type CypE; read-out: IC50^CypE
Quick reference for IC50 among some molecules
test-readout: IC50 (µM)

INSERT INTO results (structure_smiles, test_readout, meas_value) VALUES
  ('NC(=O)[C@@H]1CCNC(=O)/C=C/C(=O)N2CCC[C@](Cc3ccccc3)(C2)C(=O)N[C@@H](Cc2ccc(-c3ccc(C=O)cc3)cc2)C(=O)NCc2ccccc2CC(=O)N1', 'IC50', 1),
  ('CC(=O)c1ccc(-c2ccc(C[C@@H]3NC(=O)[C@]4(Cc5ccccc5)CCCN(C4)C(=O)/C=C/C(=O)NCC[C@@H](C(N)=O)NC(=O)Cc4ccccc4CNC3=O)cc2)cc1B(O)O', 'IC50', 0.9),
  ('NC(=O)[C@@H]1CCNC(=O)/C=C/C(=O)N2CCC[C@](Cc3ccccc3)(C2)C(=O)N[C@@H](Cc2ccc(-c3cccc(B(O)O)c3)cc2)C(=O)NCc2ccccc2CC(=O)N1', 'IC50', 4);

----------
Target: CypE K217A (Homo sapiens, UniProt Q9UNP9, K217A)
Construct: Lane 5-GS-CypE K217A (131-301); His6 tag (N, cleaved yes)
Sequence (Q9UNP9 131-301 K217A): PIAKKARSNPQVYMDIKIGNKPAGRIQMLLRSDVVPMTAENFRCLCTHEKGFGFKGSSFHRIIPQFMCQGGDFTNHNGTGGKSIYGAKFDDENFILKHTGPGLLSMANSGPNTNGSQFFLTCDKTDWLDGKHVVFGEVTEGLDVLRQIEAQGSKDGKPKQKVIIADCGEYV
Assay: Competition anisotropy (fluorescence polarization) binding assay with A26-Fl
Settings: 0.5 nM A26-Fl, CypE K217A; read-out: K^CypEK217Ai
pKi: −log10 of the molar value.
test-readout: pKi

INSERT INTO assay_data (structure_smiles, experimental_system, meas_value) VALUES
  ('NC(=O)[C@@H]1CCNC(=O)/C=C/C(=O)N2CCC[C@](Cc3ccccc3)(C2)C(=O)N[C@@H](Cc2ccc(-c3ccc(C=O)c(B(O)O)c3)cc2)C(=O)NCc2ccccc2CC(=O)N1', 'CypE K217A (Homo sapiens, UniProt Q9UNP9, K217A)', 5.51);

----------
Molecular target: CypD R124A (Homo sapiens, UniProt P30405, R124A)
Sequence (P30405 45-207 R124A): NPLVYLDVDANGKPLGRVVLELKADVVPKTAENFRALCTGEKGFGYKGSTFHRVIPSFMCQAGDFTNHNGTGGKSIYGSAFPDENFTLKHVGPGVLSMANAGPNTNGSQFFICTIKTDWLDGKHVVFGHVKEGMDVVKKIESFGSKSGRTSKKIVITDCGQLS
Assay: Chymotrypsin coupled prolyl-isomerase assay
Conditions: CypD R124A mutant; read-out: IC50^CypDR124A
pIC50: −log10 of the molar value.
test-readout: pIC50

INSERT INTO measurements (structure_smiles, experimental_system, meas_value) VALUES
  ('NCCCc1ccc(-c2ccc(C[C@@H]3NC(=O)[C@]4(Cc5ccccc5)CCCN(C4)C(=O)/C=C/C(=O)NCC[C@@H](C(=O)NCCOCCN)NC(=O)Cc4ccccc4CNC3=O)cc2)cc1', 'CypD R124A (Homo sapiens, UniProt P30405, R124A)', 6.15);

----------
Target: CypD K118E/R124A (Homo sapiens, UniProt P30405, K118E/R124A)
Sequence (P30405 45-207 K118E/R124A): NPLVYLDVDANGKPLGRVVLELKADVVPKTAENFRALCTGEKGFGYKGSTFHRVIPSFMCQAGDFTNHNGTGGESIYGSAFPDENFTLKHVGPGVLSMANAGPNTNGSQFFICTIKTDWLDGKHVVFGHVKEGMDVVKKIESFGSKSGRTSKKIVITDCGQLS
Test: Chymotrypsin coupled prolyl-isomerase assay
Settings: CypD double mutant; read-out: IC50^CypDK11E/R124A
pIC50: −log10 of the molar value.
test-readout: pIC50

INSERT INTO assay_data (structure_smiles, meas_value) VALUES
  ('NCCCc1ccc(-c2ccc(C[C@@H]3NC(=O)[C@]4(Cc5ccccc5)CCCN(C4)C(=O)/C=C/C(=O)NCC[C@@H](C(=O)NCCOCCN)NC(=O)Cc4ccccc4CNC3=O)cc2)cc1', 7.22);

----------
Biological target: CypD (Homo sapiens, UniProt P30405)
Construct: PPIF (UniProtKB Entry P30405: res 45-207); made in house; host or cells: E. coli BL21(DE3)
Sequence (P30405 45-207): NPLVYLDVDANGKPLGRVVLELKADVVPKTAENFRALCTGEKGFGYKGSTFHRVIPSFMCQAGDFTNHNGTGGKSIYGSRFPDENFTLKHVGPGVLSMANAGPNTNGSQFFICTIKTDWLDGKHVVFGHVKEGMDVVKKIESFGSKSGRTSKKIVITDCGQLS
Assay: Chymotrypsin coupled prolyl-isomerase assay
Assay type: biochemical
test-readout: CypD prolyl-isomerase inhibition (in words)

INSERT INTO results (molecule, meas_value) VALUES
  ('C[N+]1=C(/C=C/C=C/C=C2\N(CCCCCC(=O)NCCNC(=O)[C@H]3CCNC(=O)/C=C/C(=O)N4CCC[C@@](Cc5ccccc5)(C4)C(=O)N[C@H](Cc4ccc(-c5ccc(C(CC(=O)O)CC(=O)O)cc5)cc4)C(=O)NCc4ccccc4CC(=O)N3)c3ccccc3C2(C)C)C(C)(C)c2ccccc21 [*B53-Cy5]', 'did not inhibit CypD'),
  ('CCOC(=O)CC(CC(=O)OCC)c1ccc(-c2ccc(C[C@H]3NC(=O)[C@@]4(Cc5ccccc5)CCCN(C4)C(=O)/C=C/C(=O)NCC[C@H](C(=O)NCCNC(=O)CCCCCN4\C(=C/C=C/C=C/C5=[N+](C)c6ccccc6C5(C)C)C(C)(C)c5ccccc54)NC(=O)Cc4ccccc4CNC3=O)cc2)cc1 [*B53-Et-Cy5]', 'did not potently inhibit'),
  ('C[N+]1=C(/C=C/C=C/C=C2\N(CCCCCC(=O)NCCNC(=O)[C@H]3CCNC(=O)/C=C/C(=O)N4CCC[C@@](Cc5ccccc5)(C4)C(=O)N[C@H](Cc4ccc(-c5ccc(CC(C(=O)O)C(=O)O)cc5)cc4)C(=O)NCc4ccccc4CC(=O)N3)c3ccccc3C2(C)C)C(C)(C)c2ccccc21 [*B52-Cy5]', 'did not inhibit CypD'),
  ('CCOC(=O)C(Cc1ccc(-c2ccc(C[C@H]3NC(=O)[C@@]4(Cc5ccccc5)CCCN(C4)C(=O)/C=C/C(=O)NCC[C@H](C(=O)NCCNC(=O)CCCCCN4\C(=C/C=C/C=C/C5=[N+](C)c6ccccc6C5(C)C)C(C)(C)c5ccccc54)NC(=O)Cc4ccccc4CNC3=O)cc2)cc1)C(=O)OCC [*B52-Et-Cy5]', 'did not potently inhibit');

----------
Tested on: HeLa cells
Assay: Fluorescence microscopy on HeLa cells
Type: cell-based, human
Settings: Cy5 labeled compound 6 μM
test-readout: plasma membrane / mammalian cell permeability

INSERT INTO measurements (structure_smiles, experimental_system, meas_value) VALUES
  ('CN1/C(=C/C=C/C=C/C2=[N+](CCCCCC(=O)NCCNC(=O)[C@@H]3CCNC(=O)/C=C/C(=O)N4CCC[C@](Cc5ccccc5)(C4)C(=O)N[C@@H](Cc4ccc(-c5ccc(CC(C(=O)O)C(=O)O)cc5)cc4)C(=O)NCc4ccccc4CC(=O)N3)c3ccccc3C2(C)C)C(C)(C)c2ccccc21', 'HeLa cells', 'not observed'),
  ('CN1/C(=C/C=C/C=C/C2=[N+](CCCCCC(=O)NCCNC(=O)[C@@H]3CCNC(=O)/C=C/C(=O)N4CCC[C@](Cc5ccccc5)(C4)C(=O)N[C@@H](Cc4ccc(-c5ccc(C(CC(=O)O)CC(=O)O)cc5)cc4)C(=O)NCc4ccccc4CC(=O)N3)c3ccccc3C2(C)C)C(C)(C)c2ccccc21', 'HeLa cells', 'not observed');
